Answer each item with its documented IC50.
- target desc: Transient receptor potential cation channel subfamily V member 1 (Homo sapiens)
- Sequence (Q8NER1 whole entry): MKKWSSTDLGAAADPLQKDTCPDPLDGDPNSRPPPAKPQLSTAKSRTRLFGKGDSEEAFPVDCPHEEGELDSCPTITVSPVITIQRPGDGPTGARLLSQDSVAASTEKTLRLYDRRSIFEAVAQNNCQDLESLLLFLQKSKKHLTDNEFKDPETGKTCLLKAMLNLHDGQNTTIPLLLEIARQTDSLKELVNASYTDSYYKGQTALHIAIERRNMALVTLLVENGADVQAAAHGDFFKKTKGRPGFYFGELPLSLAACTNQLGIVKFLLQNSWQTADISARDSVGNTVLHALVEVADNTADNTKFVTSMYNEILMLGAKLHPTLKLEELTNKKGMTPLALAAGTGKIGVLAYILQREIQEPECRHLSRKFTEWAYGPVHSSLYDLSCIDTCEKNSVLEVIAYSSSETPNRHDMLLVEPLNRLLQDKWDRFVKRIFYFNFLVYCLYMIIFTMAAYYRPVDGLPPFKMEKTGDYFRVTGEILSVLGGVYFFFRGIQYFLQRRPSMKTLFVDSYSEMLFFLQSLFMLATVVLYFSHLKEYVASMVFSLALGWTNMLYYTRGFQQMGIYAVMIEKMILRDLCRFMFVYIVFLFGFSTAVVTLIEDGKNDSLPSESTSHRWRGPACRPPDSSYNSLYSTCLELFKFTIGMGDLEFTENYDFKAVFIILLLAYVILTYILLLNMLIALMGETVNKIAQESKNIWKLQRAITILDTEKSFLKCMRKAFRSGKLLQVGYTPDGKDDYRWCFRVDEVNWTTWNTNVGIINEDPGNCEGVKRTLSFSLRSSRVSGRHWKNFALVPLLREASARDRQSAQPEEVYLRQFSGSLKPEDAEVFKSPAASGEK
- assay: Antagonist activity at human TRPv1 receptor expressed in HEK293 cells assessed as inhibition of 0.1 um capsaicin-induced stimulation of intracellular calcium level using Fluo4-AM dye based fluorimetric assay
Return type: number; implicit unit µM.

Looking for the measured IC50 of CCCCCc1cc(O)c(C/C=C(\C)CC/C=C(\C)CCC=C(C)C)c(O)c1 [SESQUICANNABIGEROL] , can you help?
5.7

Follow-up item: CCCCCc1cc(O)c(C/C=C(\C)CCC=C(C)C)c(O)c1 [CANNABIGEROL]
2.6

###

- target desc: Cannabinoid receptor 2 (Homo sapiens, UniProt P34972)
- Sequence (P34972 whole entry): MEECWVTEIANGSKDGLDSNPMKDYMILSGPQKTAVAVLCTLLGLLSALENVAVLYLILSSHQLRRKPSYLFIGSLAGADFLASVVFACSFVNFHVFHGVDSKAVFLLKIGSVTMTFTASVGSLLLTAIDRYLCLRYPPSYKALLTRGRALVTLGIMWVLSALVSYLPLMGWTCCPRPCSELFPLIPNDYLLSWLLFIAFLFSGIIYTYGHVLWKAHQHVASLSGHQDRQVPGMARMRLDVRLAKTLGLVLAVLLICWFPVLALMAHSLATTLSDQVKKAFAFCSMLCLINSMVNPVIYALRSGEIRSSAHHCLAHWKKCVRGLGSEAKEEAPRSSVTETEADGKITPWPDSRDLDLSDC
- assay: Displacement of [3H]-CP-55,940 from human recombinant CB2 receptor expressed in HEK293 cells membrane incubated for 90 mins
measured endpoint: IC50 (µM)
Return type: number; implicit unit µM.

What measured IC50 is associated with "CCCCCc1cc(O)c(C/C=C(\C)CCC=C(C)C)c(O)c1" on Cannabinoid receptor 2 (Homo sapiens, UniProt P34972)?
3.46

Follow-up item: "CCCCCc1cc(O)c(C/C=C(\C)CC/C=C(\C)CCC=C(C)C)c(O)c1"
0.71

###

- target desc: UniProt Q8NER1
- assay: Agonist activity at human TRPv1 receptor expressed in HEK293 cells assessed as stimulation of intracellular calcium level using Fluo4-AM dye based fluorimetric assay
measured endpoint: pEC50
Expect pEC50 as a plain number equal to -log10 of the molar concentration.

Looking for the measured pEC50 of CCCCCc1cc(O)c(C/C=C(\C)CC/C=C(\C)CCC=C(C)C)c(O)c1 [SESQUICANNABIGEROL] , can you help?
5.36

Follow-up item: CCCCCc1cc(O)c(C/C=C(\C)CCC=C(C)C)c(O)c1 [CANNABIGEROL]
5.89

###

- target desc: Transient receptor potential cation channel subfamily A member 1 (Rattus norvegicus)
- assay: Agonist activity at rat recombinant TRPA1 receptor expressed in HEK293 cells assessed as stimulation of intracellular calcium level using Fluo4-AM dye based fluorimetric assay
measured endpoint: EC50 (nM)
Return type: number; implicit unit nM.

Looking for the measured EC50 of "CCCCCc1cc(O)c(C/C=C(\C)CCC=C(C)C)c(O)c1" , can you help?
700

Follow-up item: "CCCCCc1cc(O)c(C/C=C(\C)CC/C=C(\C)CCC=C(C)C)c(O)c1"
1700

###

- target desc: Transient receptor potential cation channel subfamily A member 1 (Rattus norvegicus, UniProt Q6RI86)
- Sequence (Q6RI86 whole entry): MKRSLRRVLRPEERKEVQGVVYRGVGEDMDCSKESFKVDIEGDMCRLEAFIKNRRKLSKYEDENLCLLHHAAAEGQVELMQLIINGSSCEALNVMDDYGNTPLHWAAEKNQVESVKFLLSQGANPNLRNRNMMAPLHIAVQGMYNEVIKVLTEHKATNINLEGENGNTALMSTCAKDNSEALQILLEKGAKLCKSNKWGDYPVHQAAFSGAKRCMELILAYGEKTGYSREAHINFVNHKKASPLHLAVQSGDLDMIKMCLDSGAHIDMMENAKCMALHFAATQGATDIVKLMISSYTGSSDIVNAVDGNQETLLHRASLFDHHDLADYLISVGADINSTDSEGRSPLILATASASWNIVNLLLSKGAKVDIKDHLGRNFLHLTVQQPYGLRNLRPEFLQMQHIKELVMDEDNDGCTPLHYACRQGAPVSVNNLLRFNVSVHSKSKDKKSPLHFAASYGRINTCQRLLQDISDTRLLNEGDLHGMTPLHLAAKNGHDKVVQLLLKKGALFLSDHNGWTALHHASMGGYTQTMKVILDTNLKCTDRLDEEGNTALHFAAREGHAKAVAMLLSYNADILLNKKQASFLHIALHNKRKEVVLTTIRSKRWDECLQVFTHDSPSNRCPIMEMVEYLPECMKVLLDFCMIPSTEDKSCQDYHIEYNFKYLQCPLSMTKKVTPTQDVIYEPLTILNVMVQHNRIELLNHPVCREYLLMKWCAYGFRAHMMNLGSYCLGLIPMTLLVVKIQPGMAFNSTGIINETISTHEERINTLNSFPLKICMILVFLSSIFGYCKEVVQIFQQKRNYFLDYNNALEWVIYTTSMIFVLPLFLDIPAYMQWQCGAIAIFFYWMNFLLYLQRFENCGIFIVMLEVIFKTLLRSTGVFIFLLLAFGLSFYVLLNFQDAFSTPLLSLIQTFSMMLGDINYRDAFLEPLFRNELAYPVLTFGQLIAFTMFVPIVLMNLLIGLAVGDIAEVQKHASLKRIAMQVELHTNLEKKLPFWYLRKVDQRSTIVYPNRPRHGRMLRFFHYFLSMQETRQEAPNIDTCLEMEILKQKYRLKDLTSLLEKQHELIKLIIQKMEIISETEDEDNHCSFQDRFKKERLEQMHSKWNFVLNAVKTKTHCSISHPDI
- assay: Antagonist activity at rat recombinant TRPA1 receptor expressed in HEK293 cells assessed as inhibition of 100 uM allyl isothiocyanate-induced stimulation of intracellular calcium level using Fluo4-AM dye based fluorimetric assay
Answer each item with its documented IC50.
Return type: number; implicit unit µM.

Looking for the measured IC50 of "CCCCCc1cc(O)c(C/C=C(\C)CCC=C(C)C)c(O)c1" , can you help?
13

Follow-up item: "CCCCCc1cc(O)c(C/C=C(\C)CC/C=C(\C)CCC=C(C)C)c(O)c1"
1.2

###

- target desc: Transient receptor potential cation channel subfamily V member 2 (Rattus norvegicus)
- assay: Agonist activity at rat recombinant TRPV2 receptor expressed in HEK293 cells assessed as stimulation of intracellular calcium level using Fluo4-AM dye based fluorimetric assay
measured endpoint: pEC50
Expect pEC50 as a plain number equal to -log10 of the molar concentration.

What measured pEC50 is associated with "CCCCCc1cc(O)c(C/C=C(\C)CCC=C(C)C)c(O)c1" on Transient receptor potential cation channel subfamily V member 2 (Rattus norvegicus)?
5.77

Follow-up item: "CCCCCc1cc(O)c(C/C=C(\C)CC/C=C(\C)CCC=C(C)C)c(O)c1"
5.57

###

- target desc: Transient receptor potential cation channel subfamily V member 2 (Rattus norvegicus, UniProt Q9WUD2)
- Sequence (Q9WUD2 whole entry): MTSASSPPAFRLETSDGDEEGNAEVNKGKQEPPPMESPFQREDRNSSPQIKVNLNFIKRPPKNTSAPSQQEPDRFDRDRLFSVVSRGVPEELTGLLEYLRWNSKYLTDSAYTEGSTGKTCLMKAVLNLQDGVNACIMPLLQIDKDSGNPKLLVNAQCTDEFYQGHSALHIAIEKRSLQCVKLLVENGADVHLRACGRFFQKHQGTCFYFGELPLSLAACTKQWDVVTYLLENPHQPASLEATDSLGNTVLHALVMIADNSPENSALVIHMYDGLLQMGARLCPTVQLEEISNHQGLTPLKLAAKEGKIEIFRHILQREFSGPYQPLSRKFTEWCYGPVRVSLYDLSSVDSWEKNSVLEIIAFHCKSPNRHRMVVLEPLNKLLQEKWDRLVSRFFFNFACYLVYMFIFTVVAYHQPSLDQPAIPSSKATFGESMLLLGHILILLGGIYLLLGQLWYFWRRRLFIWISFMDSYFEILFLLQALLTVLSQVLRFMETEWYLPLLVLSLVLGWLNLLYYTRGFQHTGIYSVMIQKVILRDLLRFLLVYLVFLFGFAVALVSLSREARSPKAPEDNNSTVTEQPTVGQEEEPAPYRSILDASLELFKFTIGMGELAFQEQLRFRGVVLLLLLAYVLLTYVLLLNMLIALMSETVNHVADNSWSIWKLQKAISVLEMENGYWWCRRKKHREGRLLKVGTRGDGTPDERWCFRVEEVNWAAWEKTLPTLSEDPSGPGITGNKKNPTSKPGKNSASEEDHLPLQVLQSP
- assay: Antagonist activity at rat recombinant TRPV2 receptor expressed in HEK293 cells assessed as inhibition of 3 uM lysophosphatidylcholine-induced stimulation of intracellular calcium level using Fluo4-AM dye based fluorimetric assay
Answer each item with its documented pIC50.
Expect pIC50 as a plain number equal to -log10 of the molar concentration.

Looking for the measured pIC50 of "CCCCCc1cc(O)c(C/C=C(\C)CCC=C(C)C)c(O)c1" , can you help?
5.82

Follow-up item: "CCCCCc1cc(O)c(C/C=C(\C)CC/C=C(\C)CCC=C(C)C)c(O)c1"
5.64

###

- target desc: UniProt:Q8R455
- Sequence (Q8R455 whole entry): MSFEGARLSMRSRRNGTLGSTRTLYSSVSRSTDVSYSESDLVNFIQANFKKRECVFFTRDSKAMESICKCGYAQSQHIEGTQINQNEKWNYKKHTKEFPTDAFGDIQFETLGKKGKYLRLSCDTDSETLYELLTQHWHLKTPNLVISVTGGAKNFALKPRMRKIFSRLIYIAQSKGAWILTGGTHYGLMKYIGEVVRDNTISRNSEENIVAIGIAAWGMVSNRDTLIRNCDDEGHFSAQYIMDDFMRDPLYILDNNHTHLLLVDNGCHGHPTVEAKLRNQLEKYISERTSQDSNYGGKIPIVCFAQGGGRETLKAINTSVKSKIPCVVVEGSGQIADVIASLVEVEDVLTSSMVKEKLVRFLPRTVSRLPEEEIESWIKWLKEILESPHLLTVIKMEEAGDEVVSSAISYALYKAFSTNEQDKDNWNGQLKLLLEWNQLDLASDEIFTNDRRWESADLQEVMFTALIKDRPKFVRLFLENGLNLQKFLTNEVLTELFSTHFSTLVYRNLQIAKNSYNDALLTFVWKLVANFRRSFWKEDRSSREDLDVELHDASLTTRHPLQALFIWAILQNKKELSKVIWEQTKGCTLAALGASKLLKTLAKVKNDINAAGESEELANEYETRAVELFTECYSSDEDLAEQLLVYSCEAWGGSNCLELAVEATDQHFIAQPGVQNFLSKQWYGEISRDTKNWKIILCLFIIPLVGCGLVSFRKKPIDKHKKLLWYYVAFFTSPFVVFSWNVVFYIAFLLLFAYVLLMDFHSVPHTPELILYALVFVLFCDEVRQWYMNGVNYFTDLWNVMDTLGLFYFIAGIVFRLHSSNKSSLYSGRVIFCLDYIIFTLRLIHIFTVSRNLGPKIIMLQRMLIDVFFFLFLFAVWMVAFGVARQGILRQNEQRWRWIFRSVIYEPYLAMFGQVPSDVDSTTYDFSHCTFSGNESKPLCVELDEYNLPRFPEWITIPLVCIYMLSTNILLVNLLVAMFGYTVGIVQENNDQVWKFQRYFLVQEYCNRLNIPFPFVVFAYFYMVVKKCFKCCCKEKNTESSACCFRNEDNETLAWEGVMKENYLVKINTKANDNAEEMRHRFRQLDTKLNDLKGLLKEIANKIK
- assay: Antagonist activity at rat recombinant TRPM8 receptor expressed in HEK293 cells assessed as inhibition of 0.25 uM icilin-induced stimulation of intracellular calcium level using Fluo4-AM dye based fluorimetric assay
measured endpoint: IC50

Looking for the measured IC50 of "CCCCCc1cc(O)c(C/C=C(\C)CCC=C(C)C)c(O)c1" , can you help?
160 nM

Follow-up item: "CCCCCc1cc(O)c(C/C=C(\C)CC/C=C(\C)CCC=C(C)C)c(O)c1"
950 nM
